Provide the reported GI50 of each item.
Test system: SF-295
protocol_details: NCI tumour cell line growth inhibition, 48 h
The source made the active and inactive calls. No stated cut-off is given here; in the data, active = GI50 up to about 1.1 µM and inactive = higher.

Each of the following entries comes with a recorded value; kindly state GI50 for each.
1. CC(C)[C@H](CCl)NC(=O)c1cccc(C(=O)N[C@H](CCl)C(C)C)n1 (stereo in doubt)
2. O=[N+]([O-])c1ccc(C(Cl)C(Cl)c2ccc(C(Cl)C(Cl)c3ccc([N+](=O)[O-])cc3[N+](=O)[O-])cc2)c([N+](=O)[O-])c1 (centres undefined)
3. CC1CNC(c2cccc(-c3nc(-c4cccc(C5=NC(C)CN5)c4)nc(N(C)C)n3)c2)=N1 (centres undefined)

Result:
1. > 100 µM (inactive)
2. 2.31 µM (inactive)
3. 3.61 µM (inactive)

For record `CN(c1ccc(Cl)cc1)S(=O)(=O)c1ccc([N+](=O)[O-])cc1` the listed GI50 is > 100 µM (inactive)

---

System: SR
protocol_details: NCI tumour cell line growth inhibition, 48 h
Activity calls are given as the source filed them. Rule as the data show it: active = GI50 up to about 1.1 µM and inactive = higher.
Record form. Attribute: GI50. Fill in for each entry.

Observe how each entry below is paired with its result.
Cc1ccc2c(c1)C(=O)C1(C2)Cc2ccc(C)cc2C1=O: > 100 µM (inactive)
C=C1c2nc3ccccc3n2C=C(c2ccc(OC)cc2)N1c1ccccc1: 1.96 µM (inactive)
OCCN1CCN(CCO)Cc2ccccc2OCCOc2ccccc2C1: > 100 µM (inactive)
O=C1N=CN=C2C=CC(Cl)=C(I)C12 (centres undefined): 91.8 µM (inactive)
COc1ccc(C2=C(OC(C)=O)c3cccn3-c3ccccc3S2)cc1: 3.36 µM (inactive)
CCOC(=O)c1c(-c2ccc(OC)cc2)c(C#N)c(=S)n(C2OC(COC(C)=O)C(OC(C)=O)C(OC(C)=O)C2OC(C)=O)c1C (centres undefined): > 100 µM (inactive)

I have 3 molecules here; please give me GI50 for each one.
1. COc1cc(-c2cc(O)c3cc4c(cc3n2)OCO4)cc(OC)c1OC
2. CN(C)c1ccc(/C=C2\Oc3ccccc3C2=O)cc1
3. C=CC(C)CCC(C/C=C(\C)CCCC(C)C)C(=C)CCCC(C)C (centres undefined)

Result:
1. 71 µM (inactive)
2. 31 µM (inactive)
3. > 100 µM (inactive)

---

What GI50 was measured for each of the following?
Tested on: SK-OV-3
protocol_details: NCI tumour cell line growth inhibition, 48 h
The source made the active and inactive calls. Rule as the data show it: active = GI50 up to about 1.1 µM and inactive = higher.

Some compounds with known GI50 results, for comparison:
CCOC(=O)CNC(=O)C(CSCc1ccc(Br)cc1)NC(=O)CCC(N)C(=O)OCC (stereo not given): > 50 µM (inactive)
O=C1CC2(CCC(O)(c3cccc4ccccc34)C(C(=O)c3cccc4ccccc34)C2)C(=O)c2ccccc2N1 (stereo not given): 46.3 µM (inactive)
CC(C)(CO)N1C(=O)c2ccccc2C1(O)c1ccc(Cl)cc1 (stereo not given): > 100 µM (inactive)

Working through the 2 compounds below one at a time, give GI50 for each.
1. Nc1c2c(nc3cc(F)c(F)cc13)CCC2
2. CSC1(SC2=NCCN2)SC2(NCCN2)S1

Result:
1: 62.1 µM (inactive); 2: 21.6 µM (inactive)

---

Tested on: OVCAR-3
protocol_details: NCI tumour cell line growth inhibition, 48 h
Activity calls are given as the source filed them. No stated cut-off is given here; in the data, active = GI50 up to about 1.1 µM and inactive = higher.
Valid outcomes are listed here; reply with one: T (active), F (inactive)

The following compounds have reported results that may help.
COc1ccc2nc3c([N+](=O)[O-])ccc(NCCN(C)C)c3c(N)c2c1: T
O=C1C(Cl)C(c2ccccc2Cl)N1n1cnc2ccccc2c1=O (configuration not stated): F
Cc1ccnn1CCc1ccc(Cl)cc1Cl: F
CN1Cc2cc3c(cc2-c2ccccc21)OCO3: F

Request: I'd appreciate the recorded outcome for `c1ccc(-c2ccc(-c3ccc(C4=NCCN4)cc3)o2)cc1` from this test.
Result: F

Request: Which outcome was assigned to COc1cc(OC2OC(CO)C(O)C(O)C2O)c2c(O)c3c(=O)cc(C)oc3cc2c1 (configuration not stated) in this test?
Result: F

Request: Write down the call the test reported for this compound. Item: O=C1CC2(CCC(O)(c3cccc4ccccc34)C(C(=O)c3cccc4ccccc34)C2)C(=O)c2ccccc2N1 (configuration not stated)
Result: F

---

System: DU-145
protocol_details: NCI tumour cell line growth inhibition, 48 h
The source made the active and inactive calls. Rule as the data show it: active = GI50 up to about 1.1 µM and inactive = higher.
Kindly supply the reported GI50 values for the records listed here.

The following molecules have reported results that may help.
CN(C)c1nc(-c2ccccc2)c(C(=O)c2c[nH]c3ccccc23)s1: 34.2 µM (inactive)
CC(C)OC(=O)OCSc1ccccc1/N=C/c1cccc([N+](=O)[O-])c1: > 10 µM (inactive)
O=C1C(Cl)=C(N2CCN(CCOCCO)CC2)C(=O)c2c(O)ccc(O)c21: 1.85 µM (inactive)
CC1=CC2(C)C=C[C@@H]1C(=O)[C@@]1(C)CC[C@@](O)(C(C)C)[C@H]1CC2: 28.9 µM (inactive)

Let's switch to this molecule now.
Value of GI50 reported for the molecule Cc1cc(C)c(/C=C2\C(=O)Nc3ccccc32)[nH]1 [SEMAXANIB] is > 83 µM (inactive)

---

System: SNB-75
protocol_details: NCI tumour cell line growth inhibition, 48 h
Calls of active or inactive are those of the source. No stated cut-off is given here; in the data, active = GI50 up to about 1.1 µM and inactive = higher.
Valid outcomes are listed here; reply with one: class 1 (active), class 0 (inactive)

CCCCCCCCCCCCCCCCCCNc1ccn(C2OC(COP(=O)(O)OCC3OC(n4ccc(N)nc4=O)C(O)C3O)C(O)C2O)c(=O)n1 (stereo not given): class 0
C/C(=N\Nc1ccccc1Br)c1cccc(/C(C)=N/Nc2ccccc2Br)n1: class 0
O=C1Cc2c([nH]c3cc(Br)ccc23)-c2ccccc2N1: class 0
CC(=O)OCc1ccc(-c2nc(C#N)c(N)o2)o1: class 0

Now look at this one.
Request: What was the test verdict on C/C=C/C=C\C=C/C(O)C(C)C(CCC(C)C1OC(=O)C=CC1C)OP(=O)(O)O (stereo not given) ?
Result: class 1

---

Test system: HOP-62
protocol_details: NCI tumour cell line growth inhibition, 48 h
Activity calls are given as the source filed them. Cut-off read from the data, not from the text of the source: active = GI50 up to about 1.1 µM and inactive = higher.
Field 'call' accepts active, inactive

Clc1ccc(OCc2nnc3sc(-c4ccc(-c5ccc(Cl)cc5Cl)o4)nn23)c(Cl)c1: inactive
CSS(C)(=O)=O: inactive
C=CC1=C(C)c2cc3[nH]c(c4c5nc(cc6[nH]c(cc1n2)c(C)c6CC)C=C5C(=O)C4C(=O)OC)C(CCC(=O)OC/C=C(\C)CCCC(C)CCCC(C)CCCC(C)C)C3C.C=CC1=C(C)c2cc3[nH]c(c4c5nc(cc6[nH]c(cc1n2)c(C=O)c6CC)C=C5C(=O)C4C(=O)OC)C(CCC(=O)OC/C=C(\C)CCCC(C)CCCC(C)CCCC(C)C)C3C (stereo not given): inactive
Oc1cn(-c2ccc(Cl)cc2)nc1-c1nnc(-c2ccccc2)o1: active

Could you now consider this next compound?
Request: Can you look up the reported call for `Clc1ccc(/C=N/C23CC4CC(CC(C4)C2)C3)c(Cl)c1` for me?
Result: inactive

---

System: M14
protocol_details: NCI tumour cell line growth inhibition, 48 h
Active and inactive are the calls of the source. Rule as the data show it: active = GI50 up to about 1.1 µM and inactive = higher. Starred links: 1 amine or outer side, 2 acyl side, 3 side chain; linkers in the order of their positions; H or OH if unused. Non-standard residues stand in square brackets, D forms with d. Residues, ends and D or L forms follow the SMILES beside them. *: point of attachment. X47 = CCC(=O)CC1CC(C)CC(C(=O)[*:2])N1[*:1]; X46 = CCCCCCCCC(C)C(=O)*; Aib = CC(C)(N)C(=O)O; X48 = CC(CN(C)CCO)N*
Hello, when you answer, please use one of the following outcomes: yes for active, no for inactive

Answered cases to consult:
CC12CC3CC(C1)CC(N=[N+]=[N-])(C3)C2: no
CCc1nc2c(c(N(C)C)c1C(=O)OC)CCc1ccccc1-2: no
COc1ccc(C(=O)C(C(=O)C(=O)NC2C3CC4CC(C3)CC2C4)c2ccc(OC)cc2)cc1 (stereo not drawn): no
CCc1ccc(COC(=O)C2=C(C)NC(C)=C(C(=O)OCc3ccc(CC)cn3)C2C2=COCCO2)nc1: no
O=[N+]([O-])c1ccc(C(Cl)C(Cl)c2ccc(C(Cl)C(Cl)c3ccc([N+](=O)[O-])cc3[N+](=O)[O-])cc2)c([N+](=O)[O-])c1 (stereo not drawn): yes
O=C(CCOS(=O)(=O)CF)N1CCN(C(=O)CCOS(=O)(=O)CF)CC1: no
CCCCCCCCC(C)C(=O)N1CCCC1C(=O)N1C(CC(=O)CC)CC(C)CC1C(=O)NC(C)C(=O)NC(C)(C)C(=O)NC(C)(C)C(=O)NC(C(=O)NC(C)C(=O)NC(C)(C)C(=O)NC(C)(C)C(=O)NC(C)CN(C)CCO)C(C)CC (stereo not drawn) (X46-P[X47]A[Aib][Aib]IA[Aib][Aib]-X48; configuration not given here): yes
CCOC(=O)c1sc2nc(SC)nc3c2c1NC(=O)CN3c1cccc(F)c1: no

Request: Could you please tell me the result logged for `C=C[C@@](C)(/C=C/c1ccc(O)cc1)CCC=C(C)C` in this assay?
Result: no
